The reported measurements were obtained from patent US20090130165A1.

biological target: Recombinant human MIF protein (Homo sapiens, UniProt P14174); test: Inhibition of MIF tautisomerase activity (L-dopachrome); type: biochemical; conditions: 50 uM compound, mean±standard deviation of 2-4 experiments
Sequence (P14174 2-115 limits assumed): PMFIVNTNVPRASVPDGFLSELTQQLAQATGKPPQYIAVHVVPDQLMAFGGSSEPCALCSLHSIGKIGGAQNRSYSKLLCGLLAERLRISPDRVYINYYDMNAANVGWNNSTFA
assayMetric: inhibition at 50 µM (%)

Worked examples, 5 compounds total:
O=C(O)CCSCC(=O)c1cc2[nH]c(=O)[nH]c2cc1Cl: 2
CCCCSCC(=O)c1cc2c(cc1Cl)n(C)c(=O)n2C: 28
CCCCSCC(=O)c1cc2sc(=O)[nH]c2cc1Cl: 24
CCCCSCC(=O)c1ccc2[nH]c(=O)[nH]c2c1: 4
O=C(O)CCSCC(=O)c1cc2sc(=O)[nH]c2cc1Cl: 12

I. CCCCSCC(=O)c1ccc2c(c1)n(C)c(=O)n2C
II. CCCCSCC(=O)c1cc2[nH]c(=O)[nH]c2cc1Cl
*Q* Among I and II , whose measured inhibition at 50 µM is the smaller figure? Your answer should be the label of the entry you select.
*A* II

====

assayMetric: melting point

Known results for molecules:
COC(=O)CCSCC(=O)c1cc2c(cc1Cl)NC(=O)C2: 75 to 77 °C
O=C(CSCCCCCCO)c1ccc2[nH]c(=O)[nH]c2c1: 180 to 181 °C
CCCCSCC(=O)c1cc2sc(=O)[nH]c2cc1Cl: 102.5 to 115 °C
O=C(O)CCSCC(=O)c1cc2sc(=O)[nH]c2cc1Cl: 195 to 197 °C
Cn1c(=O)n(C)c2cc(C(=O)CSCCC(=O)O)c(Cl)cc21: 148 to 150 °C

*Q* Value lookup for melting point; key = CCCCSCC(=O)c1ccc2[nH]c(=O)[nH]c2c1
*A* 211 to 213 °C

*Q* Would you kindly share the measured melting point for COC(=O)CSCC(=O)c1ccc2[nH]c(=O)[nH]c2c1 ?
*A* 177 to 178.5 °C

*Q* # lookup: melting point of O=C(O)CSCC(=O)c1ccc2[nH]c(=O)[nH]c2c1
*A* 230 °C (dec.)

*Q* So what does the record say about melting point for O=C(CSCCO)c1ccc2[nH]c(=O)[nH]c2c1 ?
*A* 320 °C (dec.)

*Q* For the molecule CCCCSCC(=O)c1ccc2c(c1)n(C)c(=O)n2C , what melting point is on record?
*A* 80 to 81 °C

*Q* // query melting point value for entry CC(=O)OCCCCCCSCC(=O)c1ccc2c(c1)CC(=O)N2
*A* 86 to 87 °C

*Q* // melting point lookup, key: CCCCSCC(=O)c1cc2[nH]c(=O)[nH]c2cc1Cl
*A* 199 to 201 °C

*Q* melting point for Cn1c(=O)n(C)c2cc(C(=O)CSCCC(=O)O)ccc21 ?
*A* 174 to 176 °C

*Q* Reported melting point, molecule COC(=O)CCSCC(=O)c1ccc2c(c1)CC(=O)N2 : ____
*A* 106 to 108 °C

*Q* melting point for O=C1Cc2cc(C(=O)CSCCCCCCO)ccc2N1 ?
*A* 105 to 108 °C

*Q* // melting point lookup, key: Cn1c(=O)sc2cc(C(=O)CSCCC(=O)O)c(Cl)cc21
*A* 120 to 121 °C

====

test system: LPS-induced IL-6 production in RAW264.7 mouse macrophage cell line; test: Inhibition of LPS-induced production of IL-6 in RAW264.7 macrophages; format: cell-based; settings: 50 uM compound, 100 ng/ml LPS 4 hr, RAW264.7 cells, relative to LPS+DMSO control
assayMetric: inhibition at 50 µM (%)
Your answer should be a plain number; it is taken to be in %.

CCCCSCC(=O)c1ccc2[nH]c(=O)oc2c1 [Compound 16]: 12
O=C(CSCCCCCCO)c1ccc2[nH]c(=O)[nH]c2c1 [Compound 10]: 25
O=C(O)CCSCC(=O)c1ccc2[nH]c(=O)sc2c1 [Compound 18]: 49
O=C(O)CCSCC(=O)c1cc2c(cc1Cl)NC(=O)C2 [Compound 13]: 32
CC(=O)OCCCCCCSCC(=O)c1ccc2c(c1)CC(=O)N2 [Compound 8]: 42

*Q* Would you kindly share the measured inhibition at 50 µM for CCCCSCC(=O)c1cc2c(cc1Cl)NC(=O)C2 [Compound 20] ?
*A* 59

*Q* Using the record for O=C(O)CCSCC(=O)c1ccc2[nH]c(=O)[nH]c2c1 [Compound 4] , report its inhibition at 50 µM.
*A* 5

*Q* Which measured inhibition at 50 µM value corresponds to COC(=O)CCSCC(=O)c1ccc2c(c1)CC(=O)N2 [Compound 1] ?
*A* 13

*Q* # input molecule: COC(=O)CCSCC(=O)c1cc2c(cc1Cl)NC(=O)C2 [Compound 12] ; wanted: its inhibition at 50 µM
*A* 60

*Q* For CCCCSCC(=O)c1ccc2c(c1)CC(=O)N2 [Compound 21] , what is its reported inhibition at 50 µM?
*A* 41
